Reference for the values: patent US9718817B2

- Target: GST-tagged ROR gamma ligand binding domain (LBD) (Homo sapiens, UniProt P51449)
- Sequence (P51449 269-508 limits assumed): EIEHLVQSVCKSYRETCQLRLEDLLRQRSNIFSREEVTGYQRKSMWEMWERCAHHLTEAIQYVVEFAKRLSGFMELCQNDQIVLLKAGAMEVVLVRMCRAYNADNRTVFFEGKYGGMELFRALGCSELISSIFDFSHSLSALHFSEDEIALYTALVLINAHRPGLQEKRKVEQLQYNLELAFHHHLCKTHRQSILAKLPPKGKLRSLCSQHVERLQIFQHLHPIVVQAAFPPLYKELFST
Recorded measurements of IC50, one per entry
Observation type: IC50

>  <Sample smiles>
CCS(=O)(=O)c1ccc(CC(=O)Nc2ccc(C#CC(C)(C)Oc3ccc(Cl)c(Cl)c3)cc2)cc1

>  <Target>
GST-tagged ROR gamma ligand binding domain (LBD) (Homo sapiens, UniProt P51449)

>  <Observation type>
IC50

>  <Test value>
< 50 nM

$$$$
>  <Sample smiles>
CCn1c(C(C)(C)Oc2ccc(NC(=O)Cc3ccc(S(=O)(=O)CC)cc3)cc2)nc2cc(Cl)ccc21

>  <Target>
GST-tagged ROR gamma ligand binding domain (LBD) (Homo sapiens, UniProt P51449)

>  <Observation type>
IC50

>  <Test value>
< 50 nM

$$$$
>  <Sample smiles>
CCS(=O)(=O)c1ccc(CC(=O)Nc2ccc3c(c2)nc(C(C)(C)Oc2ccc(F)c(F)c2)n3C)cc1

>  <Target>
GST-tagged ROR gamma ligand binding domain (LBD) (Homo sapiens, UniProt P51449)

>  <Observation type>
IC50

>  <Test value>
50 to 100 nM

$$$$
>  <Sample smiles>
CCn1c(C(C)(C)Oc2ccc(NC(=O)Cc3ccc(S(=O)(=O)CC)cc3)cc2F)nc2cc(Cl)ccc21

>  <Target>
GST-tagged ROR gamma ligand binding domain (LBD) (Homo sapiens, UniProt P51449)

>  <Observation type>
IC50

>  <Test value>
< 50 nM

$$$$
>  <Sample smiles>
CCS(=O)(=O)c1ccc(CC(=O)Nc2ccc(OC3(c4ccc(F)cc4F)COC3)c(F)c2)cc1

>  <Target>
GST-tagged ROR gamma ligand binding domain (LBD) (Homo sapiens, UniProt P51449)

>  <Observation type>
IC50

>  <Test value>
< 50 nM

$$$$
>  <Sample smiles>
CCS(=O)(=O)c1ccc(CC(=O)Nc2ccc3c(c2)nc(C(C)(C)Oc2ccc(Cl)c(Cl)c2)n3C)cc1

>  <Target>
GST-tagged ROR gamma ligand binding domain (LBD) (Homo sapiens, UniProt P51449)

>  <Observation type>
IC50

>  <Test value>
< 50 nM

$$$$

----------
Overview of reported IC50 across a group of molecules:
- Target: GST-tagged ROR gamma ligand binding domain (LBD) (Homo sapiens)
- Sequence (P51449 269-508 limits assumed): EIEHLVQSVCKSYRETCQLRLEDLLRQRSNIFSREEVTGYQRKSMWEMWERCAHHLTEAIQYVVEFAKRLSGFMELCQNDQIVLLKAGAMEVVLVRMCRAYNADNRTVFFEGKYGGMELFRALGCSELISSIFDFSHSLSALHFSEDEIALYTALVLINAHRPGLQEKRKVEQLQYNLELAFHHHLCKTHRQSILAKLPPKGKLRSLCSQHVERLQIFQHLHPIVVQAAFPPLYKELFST
Observation type: IC50

>  <Molecule>
CCS(=O)(=O)c1ccc(CC(=O)Nc2ccc(OC(C)(C)Cn3ccc4cc(Cl)ccc43)c(F)c2)cc1 [Example 104]

>  <Observation type>
IC50

>  <Test value>
50 to 100 nM

$$$$
>  <Molecule>
CCn1c(C2(Oc3ccc(NC(=O)Cc4ccc(S(=O)(=O)CC)cc4)cc3)CC2)nc2ccc(Cl)cc21 [Example 23]

>  <Observation type>
IC50

>  <Test value>
> 100 nM

$$$$
>  <Molecule>
CCS(=O)(=O)c1ccc(CC(=O)Nc2ccc(OC3(c4ccc(Cl)cc4Cl)CCOCC3)c(F)c2)cc1 [Example 136]

>  <Observation type>
IC50

>  <Test value>
< 50 nM

$$$$
>  <Molecule>
CCS(=O)(=O)c1ccc(CC(=O)Nc2ccc(OC3(c4ccc(Cl)cc4Cl)COC3)cc2)cc1 [Example 47]

>  <Observation type>
IC50

>  <Test value>
< 50 nM

$$$$
>  <Molecule>
CCS(=O)(=O)c1ccc(CC(=O)Nc2ccc(OC(C)(C)c3ccc(F)cc3Cl)nc2)cc1 [Example 57]

>  <Observation type>
IC50

>  <Test value>
50 to 100 nM

$$$$
>  <Molecule>
CCS(=O)(=O)c1ccc(CC(=O)Nc2ccc(OC3(c4ccc(Cl)cc4Cl)CCCC3)c(F)c2)cc1 [Example 137]

>  <Observation type>
IC50

>  <Test value>
< 50 nM

$$$$
>  <Molecule>
CCS(=O)(=O)c1ccc(CC(=O)Nc2ccc(OC3(c4ccc(Cl)cc4F)CC3)c(F)c2)cc1 [Example 99]

>  <Observation type>
IC50

>  <Test value>
< 50 nM

$$$$
>  <Molecule>
CCN(C(=O)C(C)(C)Oc1ccc(NC(=O)Cc2ccc(S(=O)(=O)CC)cc2)cc1)c1ccc(Cl)c(F)c1 [Example 130]

>  <Observation type>
IC50

>  <Test value>
> 100 nM

$$$$
>  <Molecule>
CCS(=O)(=O)c1ccc(CC(=O)Nc2ccc(OC3(c4ccc(Cl)c(F)c4)CCC3)c(F)c2)cc1 [Example 119]

>  <Observation type>
IC50

>  <Test value>
< 50 nM

$$$$
>  <Molecule>
CCn1c(C(C)(C)Oc2ccc(NC(=O)Cc3ccc(S(=O)(=O)CC)cc3)cc2)nc2ccc(Cl)cc21 [Example 17]

>  <Observation type>
IC50

>  <Test value>
< 50 nM

$$$$
>  <Molecule>
CCS(=O)(=O)c1ccc(CC(=O)Nc2ccc(C#CC(C)(C)Oc3ccc(Cl)cc3)cc2)cc1 [Example 64]

>  <Observation type>
IC50

>  <Test value>
< 50 nM

$$$$
>  <Molecule>
CCn1c(C(C)(C)Oc2ccc(Cl)cn2)nc2cc(NC(=O)Cc3ccc(S(=O)(=O)CC)cc3)ccc21 [Example 94]

>  <Observation type>
IC50

>  <Test value>
> 100 nM

$$$$
>  <Molecule>
CCS(=O)(=O)c1ccc(CC(=O)Nc2ccc(OC(C)(C)c3ccc(Cl)cc3Cl)cc2)cc1 [Example 3]

>  <Observation type>
IC50

>  <Test value>
< 50 nM

$$$$
>  <Molecule>
CCS(=O)(=O)c1ccc(CC(=O)Nc2ccc(OC3(c4ccc(Cl)c(Cl)c4)CC3)cc2)cc1 [Example 49]

>  <Observation type>
IC50

>  <Test value>
50 to 100 nM

$$$$
>  <Molecule>
CCn1c(C(C)(C)Oc2ccc(NC(=O)Cc3ccc(S(=O)(=O)CC)cc3)cc2)nc2cccc(Cl)c21 [Example 19]

>  <Observation type>
IC50

>  <Test value>
50 to 100 nM

$$$$
>  <Molecule>
CCS(=O)(=O)c1ccc(CC(=O)Nc2ccc(OC3(c4ccc(F)c(F)c4)CCOCC3)cc2)cc1 [Example 35]

>  <Observation type>
IC50

>  <Test value>
50 to 100 nM

$$$$
